Some substances, each annotated with its measured EC50.
# systemUnderTest: human GcgR (Homo sapiens)
# Sequence (P47871 26-477): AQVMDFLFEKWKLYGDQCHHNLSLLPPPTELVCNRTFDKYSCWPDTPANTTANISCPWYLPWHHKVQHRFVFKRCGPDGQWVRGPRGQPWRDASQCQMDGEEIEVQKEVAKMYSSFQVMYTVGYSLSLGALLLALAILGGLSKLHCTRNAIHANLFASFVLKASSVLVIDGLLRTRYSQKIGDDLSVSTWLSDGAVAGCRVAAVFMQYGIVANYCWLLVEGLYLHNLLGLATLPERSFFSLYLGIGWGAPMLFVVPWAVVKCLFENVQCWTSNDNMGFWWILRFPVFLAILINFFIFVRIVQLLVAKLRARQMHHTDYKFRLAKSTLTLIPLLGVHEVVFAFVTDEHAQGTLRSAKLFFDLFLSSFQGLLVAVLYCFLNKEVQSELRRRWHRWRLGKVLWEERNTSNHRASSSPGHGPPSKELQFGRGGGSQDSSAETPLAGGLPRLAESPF
# experimentalProtocol: Functional cAMP activity in the presence of 1% HSA
# Format: cell-based
# settings: read-out: cAMP Rel EC50, hGcgR
Starred links: 1 amine or outer side, 2 acyl side, 3 side chain; linkers in the order of their positions; H or OH if unused. Non-standard residues stand in square brackets, D forms with d. Groups on a side chain read outwards from the residue. *: point of attachment. C20 diacid = O=C(O)CCCCCCCCCCCCCCCCCCC(=O)*; C18 diacid = O=C(O)CCCCCCCCCCCCCCCCC(=O)*; αMePhe(2-F) = C[C@](N)(Cc1ccccc1F)C(=O)O; γGlu = O=C(O)[C@H](CCC(=O)[*:2])N[*:1]; αMe4Pal = C[C@](N)(Cc1ccncc1)C(=O)O; αMeY = C[C@](N)(Cc1ccc(O)cc1)C(=O)O; αMeF = C[C@](N)(Cc1ccccc1)C(=O)O; 4Pal = N[C@@H](Cc1ccncc1)C(=O)O; αMeL = CC(C)C[C@](C)(N)C(=O)O; αMeS = C[C@](N)(CO)C(=O)O; Orn = NCCC[C@H](N)C(=O)O; AEEA = NCCOCCOCC(=O)O; Aib = CC(C)(N)C(=O)O
Answer format: numeric, nM implied, no suffix.

Example substances with recorded EC50:
H-Y[Aib]QGT[αMeF]TSD[4Pal][αMeS]I[αMeL]LD[Orn]K([γGlu-γGlu-C18 diacid])AQ[αMe4Pal]EFI[dE][αMeY]LIEGGPSSGEPPPSGGGE-NH2 [Example 1175]; 282
H-Y[Aib]QGT[αMePhe(2-F)]TSD[4Pal][αMeS]I[αMeL]LD[Orn]K([AEEA-γGlu-C18 diacid])AQ[αMe4Pal]EFI[dE][αMeY]LIEGGPSSGAPPPEGGGEE-NH2 [Example 1216]; 225
H-Y[Aib]QGTFTSDFSK[αMeL]LDKK([AEEA-γGlu-C20 diacid])AQ[Aib]AFIEWLLEGGPSSGAPPPSEG-NH2 [Example 37]; 1870
H-Y[Aib]QGTFTSDFS[Orn][αMeL]LDKK([AEEA-AEEA-γGlu-C18 diacid])AQ[Aib]AFIEYLLE[Aib]GPSSGAPPPEGS-NH2 [Example 194]; 813

Item H-Y[Aib]QGTFTSDFSK[αMeL]LDKK([AEEA-AEEA-γGlu-C20 diacid])AQ[Aib]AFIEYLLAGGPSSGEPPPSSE-NH2 [Example 5] has what recorded EC50?
2670

Item H-Y[Aib]QGTFTSDFSK[αMeL]LDKK([AEEA-γGlu-C18 diacid])AQ[Aib]QFIEYLLEGGPSSGAPPPSEG-NH2 [Example 51] has what recorded EC50?
856

Item H-Y[Aib]QGT[αMePhe(2-F)]TSD[4Pal][αMeS]I[αMeL]LD[Orn]K([AEEA-γGlu-C18 diacid])AQ[αMe4Pal]EFI[dE][αMeY]LIEGGPSSGAPPPSGE-NH2 [Example 1140] has what recorded EC50?
228

Item H-Y[Aib]QGT[αMePhe(2-F)]TSD[4Pal][αMeS]I[αMeL]LD[Orn]K([AEEA-γGlu-C18 diacid])AQ[αMe4Pal]EFI[dE][αMeY]LVEGGPSSGEPPPSGE-NH2 [Example 750] has what recorded EC50?
205

Item H-Y[Aib]QGTFTSD[4Pal][αMeS]Q[αMeL]LD[Orn]K([dE-γGlu-C18 diacid])AQ[αMe4Pal]QFIQ[αMeY]LLE[Aib]GPSSGAPPPSGGGE-NH2 [Example 1138] has what recorded EC50?
72.8

Item H-Y[Aib]QGT[αMePhe(2-F)]TSD[4Pal][αMeS]I[αMeL]LD[Orn]K([γGlu-γGlu-C18 diacid])AQ[αMe4Pal]EFI[dE][αMeY]LVEGGPSSGEPPPSGS-NH2 [Example 737] has what recorded EC50?
122
